Tested on: MDA-MB-231 breast
ASSAY_NOTES: NCI-60 one-dose screen, 48 h (100 = growth as untreated, 0 = no growth, -100 = all killed)
EXPERIMENTAL_CONDITIONS: 10 µM unless noted
Compounds without any hit were thinned out: in the full panel of roughly 83,000, 20% have a hit.
Note to self: class = bucket of growth, per band 1 (below 20%), band 2 (20% to below 70%), band 3 (70% or more)

Known results for compounds:
O=C(N/N=C/c1ccc(Cl)cc1)c1cc(-c2cc3ccccc3o2)nn1-c1ccccc1 = band 3
Cn1c(=O)c(F)c(Nc2ccc(I)cc2F)c2c(=O)n(C[C@@H](O)CO)cnc21 = band 1
Cc1ccc(C(=O)Nc2ccc(CN3CCN(C)CC3)c(C(F)(F)F)c2)cc1C#Cc1cnc2cccnn12 = band 1

// query Into which category would you place `CCc1nc2cc(F)c(/C=C/C(=O)NO)cc2c(=O)n1CCc1ccccc1` ?
// result band 1

// query Next entry: `O=C(c1c(F)ccc(NS(=O)(=O)N2CC[C@@H](F)C2)c1F)c1c[nH]c2ncc(-c3cnc(C4CC4)nc3)cc12`
// result band 2

// query Next entry: O=C(O)C1(Cc2cccc(Nc3nccs3)n2)CCC(Oc2cccc(Cl)c2F)CC1 (stereo unspecified)
// result band 3

// query Next entry: `CCOC(=O)Sc1ncnc2nc[nH]c12`
// result band 2

// query Next entry: `CNC(=O)c1c(C)oc2cc(Oc3ncnc4cc(OC)c(OC)cc34)ccc12`
// result band 3

// query Next entry: COc1ccc(COc2cc3oc(=O)c4cc(C(C)O)ccc4c3cc2OC)cc1 (stereo unspecified)
// result band 2

----------
System: SN12C renal
ASSAY_NOTES: NCI-60 one-dose screen, 48 h (100 = growth as untreated, 0 = no growth, -100 = all killed)
EXPERIMENTAL_CONDITIONS: 10 µM unless noted
About 83,000 compounds went through this panel and 20% of them were active in at least one assay; those are over-represented in the sample as a whole.
METRIC_NAME: growth (%)
Numbers only, in %.

Cc1cccc(C)c1N1C(c2ccccc2)=NNC12C=CC(=O)c1c(O)cccc12 (stereo not drawn) = 72.5

// each listed molecule needs a value for growth
1. Cc1nc(NC(=O)N2CCC[C@H]2C(N)=O)sc1-c1ccnc(C(C)(C)C(F)(F)F)c1
2. COc1cc(Nc2ncc(F)c(Nc3ccc4c(n3)NC(=O)C(C)(C)O4)n2)cc(OC)c1OC

// result
57.7
36.6

----------
Tested on: HOP-92 NSCLC
ASSAY_NOTES: NCI-60 one-dose screen, 48 h (100 = growth as untreated, 0 = no growth, -100 = all killed)
EXPERIMENTAL_CONDITIONS: 10 µM unless noted
Compounds without any hit were thinned out: in the full panel of roughly 83,000, 20% have a hit. Activity calls are given as the source filed them. The calls were made as follows: active = growth percent below 10; inactive = the rest.
METRIC_NAME: growth

Field: example entries. Status: answers known.
C=C1C[C@H](O)[C@H](Br)C(C)(C)[C@@]12CCC(C)=C(Cl)C2 = 23.6% (inactive)
CCS(=O)(=O)N1CCN(c2ccc(Nc3ncc(C(N)=O)c(NC4CC4)n3)cc2)CC1 = 87.4% (inactive)

// each listed compound needs a value for growth
1. CN1CCN(c2nc(NCCNc3ccnc4cc(Cl)ccc34)c3ccccc3n2)CC1
2. Cc1cc([C@@H](C)Nc2ccccc2C(=O)O)c2nc(N3CCOCC3)cc(=O)n2c1

// result
1: 53% (inactive); 2: 13.7% (inactive)

Data origin, for the record: PubChem BioAssay (NCI)
